// reported melting point for each item listed

Reference set (2 entries):
CCC(CC)c1ccc(Cl)c2nc(Oc3c(Cl)cc(Cl)cc3Cl)n(C)c12 [Example 138]: 155 to 157 °C
CCCC(CCC)c1ccc(Cl)c2nc(Oc3c(C)cc(C)cc3C)n(C)c12 [Example 124]: 165 to 167 °C

Challenge: Identify the reported melting point for the following entry. CCC(CC)c1ccc(CN2CCCC2)c2nc(Oc3c(C)cc(Cl)cc3Cl)n(C)c12 [Example 156]
Response given: 107 to 108 °C

Challenge: Quick one: give measured melting point for CCC(CC)c1ccc(Cl)c2nc(Nc3cnc(N(C)C)cc3C)n(C)c12 [Example 88]
Response given: 224 to 226 °C

Challenge: Please supply the value of reported melting point for the item CCCC(CCC)c1ccc(Cl)c2nc(Nc3c(C)cc(Br)cc3OC)n(C)c12 [Example 89]
Response given: 210 to 211 °C

Challenge: Assign melting point to the following record: C/C=C(/CC)c1ccc(Cl)c2nc(Nc3c(C)cc(Cl)cc3OC)n(C)c12 [Example 109]
Response given: 166 to 168 °C

Challenge: Provide melting point value for the following molecule: CCC(CC)c1ccc(C(F)(F)F)c2nc(Oc3ccc(Cl)cc3Br)n(C)c12 [Example 161]
Response given: 119 to 120 °C

Challenge: State its melting point: CCCC(CCC)c1ccc(Cl)c2nc(Nc3cc(C(F)(F)F)ccc3OC)n(C)c12 [Example 112]
Response given: 178 to 180 °C

Challenge: Give me measured melting point, please, for this molecule: CCC(CC)c1ccc(Cl)c2nc(Oc3c(C)cc(Cl)cc3C)n(C)c12 [Example 125]
Response given: 168 to 169 °C

* * *

Property: melting point; scope: individual compounds

The following compounds have reported results that may help.
CCC(CC)c1ccc(Cl)c2nc(Oc3c(C)cc(Br)cc3C)n(C)c12: 197 to 198 °C
CCC(CC)c1ccc(-c2ccco2)c2nc(Oc3ccc(Cl)cc3Br)n(C)c12: 159 to 162 °C
CCC(CC)c1ccc(Cl)c2nc(Nc3c(Cl)cc(OC(F)(F)F)cc3Cl)n(C)c12: 147 to 149 °C
CCCC(CCC)c1ccc(Cl)c2nc(Oc3c(C)cc(Br)cc3C)n(C)c12: 155 to 157 °C
COc1cc(Cl)cc(C)c1Nc1nc2c(Cl)ccc(C(O)(C(C)C)C(C)C)c2n1C: 218 to 219 °C

Challenge: For the compound CCCC(CCC)c1ccc(Cl)c2nc(Nc3cc(C(F)(F)F)c(O)cc3Cl)n(C)c12 , give its measured melting point value.
Response given: 197 to 199 °C

Challenge: Check the records and state melting point for CCC(CC)c1ccc(Br)c2nc(Nc3c(C)cc(Cl)cc3OC)n(C)c12
Response given: 198 to 199 °C

Challenge: # return recorded melting point for input CCCC(CCC)c1ccc(Cl)c2nc(Oc3c(Cl)cc(Cl)cc3Cl)n(C)c12
Response given: 148 to 150 °C

* * *

Structures can show the parent of a compound that is named as a salt.
Some molecules, each annotated with its measured melting point.

Guide cases for melting point, answers given:
CCCC(CCC)c1ccc(Cl)c2nc(Oc3c(C)cc(Cl)cc3C)n(C)c12: 160 to 162 °C
CCCC(CCC)c1ccc(Cl)c2nc(Nc3cc(C(F)(F)F)c(OC)cc3OC)n(C)c12: 196 to 198 °C
CCC(CC)c1ccc(Cl)c2nc(Oc3c(C)cc(C)cc3C)n(C)c12: 137 to 139 °C

Challenge: Supply melting point value. Item: CCC(CC)c1ccc(CO)c2nc(Oc3c(C)cc(Cl)cc3Cl)n(C)c12
Response given: 141 to 143 °C

Challenge: Report melting point for COc1cc(Cl)cc(C)c1Nc1nc2c(Cl)ccc(C(=O)C(C)(C)C)c2n1C
Response given: 249 to 250 °C

Challenge: // Input: COc1cc(Cl)cc(C)c1Nc1nc2cccc(-c3c(OC)cccc3OC)c2n1C (as salt: trifluoroacetic acid salt) . Output its melting point only.
Response given: 288 to 289 °C

Challenge: Tell me melting point reported for CCCC(CCC)c1ccc(Cl)c2nc(Nc3cc(C(F)(F)F)c(Cl)cc3Cl)n(C)c12
Response given: 206 to 208 °C

Challenge: Look up and report measured melting point for this entry: CCCC(CCC)c1ccc(Cl)c2nc(Oc3ccc4c5c3CCN5C(=O)CC4)n(C)c12
Response given: 150 to 152 °C

Challenge: Kindly indicate its recorded melting point. Item: CCC(CC)c1ccc(Cl)c2nc(Nc3c(C)cc(Br)cc3C)n(C)c12
Response given: 247 to 249 °C

Challenge: Please report melting point for the following molecule: CCCC(CCC)c1ccc(Cl)c2nc(Nc3ccc(Cl)cc3OC(F)(F)F)n(C)c12
Response given: 130 to 132 °C

* * *

// reported melting point per item

CCCC(CCC)c1ccc(Cl)c2nc(Nc3ccc(Br)cc3Cl)n(C)c12: 145 to 147 °C

Challenge: # return recorded melting point for input CCC(CC)c1ccc(Cl)c2nc(Oc3c(N(C)C)cc(C)nc3C)n(C)c12
Response given: 175 to 177 °C

Challenge: Give reported melting point value for CCC(CC)c1ccc(O)c2nc(Oc3ccc(Cl)cc3Br)n(C)c12
Response given: 175 to 177 °C

Challenge: Identify measured melting point corresponding to CCCC(CCC)c1ccc(Cl)c2nc(Nc3c[nH]c(=O)cc3C)n(C)c12
Response given: 237 to 239 °C

Challenge: Identify measured melting point associated with CCC(CC)c1ccc(Cl)c2nc(Oc3c(OC)cc(C)cc3OC)n(C)c12
Response given: 161 to 162 °C

* * *

Target: human CRF receptor (Homo sapiens)
Sequence (P34998 24-415): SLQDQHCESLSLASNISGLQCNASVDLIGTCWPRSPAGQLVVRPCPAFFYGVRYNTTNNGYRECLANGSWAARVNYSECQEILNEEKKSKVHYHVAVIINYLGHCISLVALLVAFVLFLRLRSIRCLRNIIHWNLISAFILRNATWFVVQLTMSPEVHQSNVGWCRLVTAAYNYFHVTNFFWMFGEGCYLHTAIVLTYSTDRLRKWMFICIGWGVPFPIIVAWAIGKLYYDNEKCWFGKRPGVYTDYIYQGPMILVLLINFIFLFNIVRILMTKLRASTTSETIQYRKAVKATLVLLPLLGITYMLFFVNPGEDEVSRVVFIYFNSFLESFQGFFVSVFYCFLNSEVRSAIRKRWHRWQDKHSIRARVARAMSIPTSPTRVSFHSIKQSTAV
Assay: Corticotropin-releasing factor (CRF) receptor binding experiment with 125I-CRF
Conditions: human CRF receptor expressing CHO cellular membrane fraction; 125I-CRF; GraphPad Prism
pIC50: −log10 of the molar value.
# pIC50 per entry

// solved cases for pIC50 follow
CCC(CC)c1ccc(Cl)c2nc(Nc3c(C)cc(Br)cc3OC)n(C)c12 [Example 77]: 7.30 to 8.00
CCc1ccccc1-c1cccc2nc(Nc3c(C)cc(Cl)cc3OC)n(C)c12 [Example 15]: 7.30 to 8.00

Challenge: Please give measured pIC50 of the following entry: CCC(CC)c1ccc(OC)c2nc(Oc3c(C)cc(Cl)cc3Cl)n(C)c12 [Example 145]
Response given: > 8.00

Challenge: Report pIC50 for CCC(CC)c1ccc(C)c2nc(Nc3c(C)cc(Cl)cc3OC)n(C)c12 [Example 101]
Response given: > 8.00

Challenge: Report measured pIC50; entry is CCc1cc(CC)n(-c2cccc3nc(Nc4c(C)cc(Br)cc4OC)n(C)c23)n1 [Example 66]
Response given: 7.30 to 8.00

* * *

Measured parameter: melting point

Some compounds with known melting point results, for comparison:
CCC(CC)c1ccc(Cl)c2nc(Nc3ccc(Br)cc3Cl)n(C)c12: 127 to 129 °C
CCCC(CCC)c1ccc(Cl)c2nc(Nc3c(C)cc(Cl)cc3C)n(C)c12: 230 to 232 °C
CCC(CC)c1ccc(Cl)c2nc(Nc3ccc(Cl)cc3OC(F)(F)F)n(C)c12: 126 to 128 °C
CCC(CC)c1ccc(Cl)c2nc(Oc3c(OC)cc(C)nc3C)n(C)c12: 183 to 184 °C

Read the next record carefully.
Challenge: For the compound CCC(CC)c1ccc(Cl)c2nc(Nc3ccc(C(F)(F)F)cc3Cl)n(C)c12 , give its measured melting point value.
Response given: 128 to 129 °C

* * *

Here, each record is paired with measured melting point data.

Illustrative cases are given below, each with its answer.
CCC(CC)c1ccc(C#N)c2nc(Nc3c(C)cc(Cl)cc3OC)n(C)c12: 223 to 225 °C
CCC(CC)c1cc(Br)cc2nc(Oc3c(C)cc(Cl)cc3C)n(C)c12: 214 to 216 °C

Please look at the following molecule next.
Challenge: Consider the molecule COc1cc(Cl)cc(C)c1Nc1nc2c(Cl)ccc(C(=C(C)C)C(C)C)c2n1C . State its measured melting point.
Response given: 166 to 168 °C
